Listed below: Relative activity (%) values for each entry.
# system: T1, hCD112R mFC recombinant protein (human; murine, UniProt Q6DKI7 41-160)
# T1 construct: range 41-160; expressed in 293E cells; also called hCD112R ECD mFC; hCD112R-ECD-mFC; not shown: murine IgG2a Fc domain (MX2-mFc vector)
# T1 sequence (looked up): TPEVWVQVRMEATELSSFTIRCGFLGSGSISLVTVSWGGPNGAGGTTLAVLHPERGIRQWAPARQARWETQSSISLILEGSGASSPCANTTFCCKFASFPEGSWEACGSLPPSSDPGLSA
# assayProtocol: ELISA, coated hCD112R-ECD-mFC; EC50 COM701/EC50 antibody
# output: bare number, implied unit %

Hu34 (antibody, IgG4, V domains shown, humanized IgG4) VH: EVQLVESGGGLVQPGGSLRLSCAASGFTFSSYHMSWVRQAPGKGLELVAAISRDGDSTYYPDTVKGRFTISRDDAENSLYLQMNSLRAEDTAVYYCSRHEDYFGFAMDSWGQGTLVTVSS VL: DIVMTQSPDSLAVSLGERATINCKASQSVSNDVAWYQQKPGQPPKLLIYYVSHRFTGVPDRFSGSGSGTDFTLTISSLQAEDVAVYFCHQAYRSPWTFGQGTKLEIK | 162
Hu5 (antibody, IgG4, V domains shown, humanized IgG4; also called Hu-05) VH: EVQLVESGGGLVQPGGSLRLSCAASGFTFSSYHMSWVRQAPGKGLELVAAINSNDINTYYLDTVKGRFTISRDIAKNSLYLQMNSLRAEDTAVYYCARHEDYYGFAMDYWGQGTLVTVSS VL: DIQMTQSPSSLSASVGDRVTITCKASQSVSNDVAWYQQKPGKAPKLLIYYVSNRFTGVPSRFSGSGSGTDFTLTISSLQPEDFATYFCQQAYRSPWTFGQGTKLEIK | 155

Ask | Determine its reported Relative activity (%): Hu54 (antibody, IgG4, V domains shown, humanized IgG4) VH: EVQLVESGGGLVKPGGSLRLSCAASGFTFSSYHMSWVRQAPGKGLELVSAINSNGINTYYLDTVKGRFTISRDNAKNSLYLQMNSLRAEDTAVYYCARHEDYYGFAMDYWGQGTLVTVSS VL: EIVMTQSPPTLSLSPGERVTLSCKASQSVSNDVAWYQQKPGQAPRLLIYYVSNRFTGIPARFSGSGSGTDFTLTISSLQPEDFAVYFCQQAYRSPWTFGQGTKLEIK
Reply | 145

Ask | Determine its reported Relative activity (%): Hu49 (antibody, IgG4, V domains shown, humanized IgG4) VH: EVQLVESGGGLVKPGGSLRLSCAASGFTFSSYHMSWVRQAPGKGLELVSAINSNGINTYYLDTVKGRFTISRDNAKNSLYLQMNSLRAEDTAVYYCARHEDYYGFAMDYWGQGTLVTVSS VL: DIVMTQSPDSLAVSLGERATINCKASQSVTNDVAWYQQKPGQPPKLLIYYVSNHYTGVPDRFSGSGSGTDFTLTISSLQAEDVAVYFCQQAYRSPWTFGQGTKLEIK
Reply | 176

Ask | Determine its reported Relative activity (%): Hu30 (antibody, IgG4, V domains shown, humanized IgG4) VH: EVQLVESGGGLVQPGGSLRLSCAASGFTFSSYHMSWVRQAPGKGLELVAAISRDGDSTYYPDTVKGRFTISRDNAKNSLYLQMNSLRAEDTAVYYCSRHEDYFGFAMDSWGQGTLVTVSS VL: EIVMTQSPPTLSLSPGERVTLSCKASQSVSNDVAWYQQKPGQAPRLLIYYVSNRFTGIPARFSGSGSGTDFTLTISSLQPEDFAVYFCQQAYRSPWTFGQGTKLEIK
Reply | 153

Ask | Determine its reported Relative activity (%): Hu20 (antibody, IgG4, V domains shown, humanized IgG4) VH: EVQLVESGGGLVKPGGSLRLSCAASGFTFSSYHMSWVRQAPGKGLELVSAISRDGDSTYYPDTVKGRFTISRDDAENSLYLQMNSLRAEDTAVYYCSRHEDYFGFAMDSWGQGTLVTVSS VL: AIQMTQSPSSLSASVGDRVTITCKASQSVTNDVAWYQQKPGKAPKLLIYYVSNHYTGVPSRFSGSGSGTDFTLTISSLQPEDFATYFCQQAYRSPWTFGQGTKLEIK
Reply | 128
